Assign hERG current change (%, negative = inhibition) at 10uM to each entry below.
- Tgt: human ether-à-go-go-related gene (hERG) potassium channel (human, UniProt Q12809)
- Sequence (Q12809 whole entry, looked up): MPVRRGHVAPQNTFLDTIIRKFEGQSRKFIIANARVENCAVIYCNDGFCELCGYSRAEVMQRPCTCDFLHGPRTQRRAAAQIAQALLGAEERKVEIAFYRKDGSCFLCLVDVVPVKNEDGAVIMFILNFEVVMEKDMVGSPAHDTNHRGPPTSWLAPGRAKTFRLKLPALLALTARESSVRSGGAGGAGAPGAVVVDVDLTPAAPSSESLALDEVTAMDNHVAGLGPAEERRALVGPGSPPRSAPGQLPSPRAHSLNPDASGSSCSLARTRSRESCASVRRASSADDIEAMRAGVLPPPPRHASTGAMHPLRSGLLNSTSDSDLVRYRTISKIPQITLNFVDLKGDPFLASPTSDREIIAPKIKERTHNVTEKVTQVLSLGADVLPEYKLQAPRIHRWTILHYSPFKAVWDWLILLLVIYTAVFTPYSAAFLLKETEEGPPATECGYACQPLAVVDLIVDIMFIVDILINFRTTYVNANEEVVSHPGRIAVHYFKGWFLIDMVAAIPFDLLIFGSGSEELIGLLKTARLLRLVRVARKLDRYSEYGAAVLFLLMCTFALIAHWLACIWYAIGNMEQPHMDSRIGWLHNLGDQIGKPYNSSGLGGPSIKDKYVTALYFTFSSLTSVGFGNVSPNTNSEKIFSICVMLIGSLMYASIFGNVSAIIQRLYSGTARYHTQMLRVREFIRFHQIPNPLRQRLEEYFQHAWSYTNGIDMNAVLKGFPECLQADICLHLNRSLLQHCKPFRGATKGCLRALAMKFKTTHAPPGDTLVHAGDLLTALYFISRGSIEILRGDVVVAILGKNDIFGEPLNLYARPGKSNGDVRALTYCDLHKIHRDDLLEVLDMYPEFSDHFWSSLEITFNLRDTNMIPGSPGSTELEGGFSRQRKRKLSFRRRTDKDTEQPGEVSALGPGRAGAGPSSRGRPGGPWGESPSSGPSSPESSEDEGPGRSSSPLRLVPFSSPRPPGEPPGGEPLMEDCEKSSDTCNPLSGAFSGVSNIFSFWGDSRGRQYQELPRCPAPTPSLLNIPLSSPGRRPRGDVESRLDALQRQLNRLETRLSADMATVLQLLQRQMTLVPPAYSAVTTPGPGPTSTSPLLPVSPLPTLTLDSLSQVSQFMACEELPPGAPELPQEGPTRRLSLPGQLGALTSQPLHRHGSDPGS
- Protocol text: primary screen, population patch clamp on CHO cells stably expressing hERG; higher = less effect of the substance
In all, about 310,000 compounds went through this assay and about 14,000 (4.5%) showed an effect of 50% or more. Effects have a minus sign here. The sample as a whole holds a higher share of strong results than the screen did.
Lab book: enter the figure in %, no units written.

**Query** Record request: hERG current change (%, negative = inhibition) at 10uM value, item O=C(Nc1cccnc1)c1ccc(Cl)c(S(=O)(=O)N2CCCCCC2)c1
**Result** -31.6

**Query** If you can, please state the reported hERG current change (%, negative = inhibition) at 10uM value of Cc1cccnc1NC(=O)c1ccc(Cl)c(S(=O)(=O)N2CCCCC2)c1 .
**Result** -21.7

**Query** What measured hERG current change (%, negative = inhibition) at 10uM goes with O=C(Nc1ncccc1O)c1ccc(Cl)c(S(=O)(=O)N2CCCCC2)c1 ?
**Result** -16.1

**Query** Recorded hERG current change (%, negative = inhibition) at 10uM of O=C(NCc1ccccn1)c1ccc(Cl)c(S(=O)(=O)N2CCCCC2)c1 , please.
**Result** -10.1

**Query** Could you tell me which hERG current change (%, negative = inhibition) at 10uM is on file for Cc1cccnc1NC(=O)c1ccc(Cl)c(S(=O)(=O)N2CCCCCC2)c1 ?
**Result** -65.5

**Query** Which hERG current change (%, negative = inhibition) at 10uM reading was recorded for the molecule O=C(Nc1ncccc1O)c1ccc(Cl)c(S(=O)(=O)N2CCCCCC2)c1 ?
**Result** -61

**Query** I'd like to know its hERG current change (%, negative = inhibition) at 10uM. The molecule in question is Cc1ccc(C(=O)Nc2ncccc2O)cc1S(=O)(=O)N1CCCCC1
**Result** -14.3

**Query** Need hERG current change (%, negative = inhibition) at 10uM, item O=C(Nc1cccnc1)c1ccc(Cl)c(S(=O)(=O)N2CCCCC2)c1
**Result** -15.6

**Query** I am curious: what hERG current change (%, negative = inhibition) at 10uM value has been reported for Cc1cccnc1NC(=O)c1ccc(Cl)c(S(=O)(=O)N2CCCC2)c1 ?
**Result** -9.58

---

- Tgt: human ether-à-go-go-related gene (hERG) potassium channel (human)
- Protocol text: primary screen, population patch clamp on CHO cells stably expressing hERG; higher = less effect of the substance
The campaign covered roughly 310,000 compounds. About 14,000 (4.5%) showed an effect of 50% or more. The effect is printed as a negative number. The list comes from a sample in which strong results are over-represented; it also holds close analogues and randomly drawn compounds.
Kindly supply the reported hERG current change (%, negative = inhibition) at 10uM values for the records listed here.
Remember to follow the number with its unit.

**Query** Which hERG current change (%, negative = inhibition) at 10uM is reported with human ether-à-go-go-related gene (hERG) potassium channel (human) for this entry: Cc1cc(C(=O)N2CCOCC2)ccc1[N+](=O)[O-] ?
**Result** 9.19%

**Query** Short answer please: hERG current change (%, negative = inhibition) at 10uM, human ether-à-go-go-related gene (hERG) potassium channel (human), entry O=C(N/N=C/c1ccccn1)C(O)c1ccccc1 (centres unmarked)
**Result** 9.82%

**Query** Which measured hERG current change (%, negative = inhibition) at 10uM belongs to CCCCn1c2ccc(F)cc2c2nnc(NN)nc21 , tested on human ether-à-go-go-related gene (hERG) potassium channel (human)?
**Result** -44.9%

**Query** Param readout = hERG current change (%, negative = inhibition) at 10uM; param system = human ether-à-go-go-related gene (hERG) potassium channel (human); param query = Cc1cccc(NC(=O)c2nc[nH]c2C(=O)N2CCc3ccccc3C2)c1 ; response: value
**Result** 5.13%

**Query** Hello, I am looking for reported hERG current change (%, negative = inhibition) at 10uM with human ether-à-go-go-related gene (hERG) potassium channel (human) for O=C(CSc1nnc(-c2ccco2)o1)NCC(=O)c1ccccc1 . Could you help?
**Result** -4.72%

**Query** Missing value: hERG current change (%, negative = inhibition) at 10uM, human ether-à-go-go-related gene (hERG) potassium channel (human), entry CCN1CC(CN(C)Cc2nc(-c3ccc(C(F)(F)F)cc3)oc2C)CC1=O (centres unmarked) . Fill in?
**Result** -51.5%

**Query** Requested read-out hERG current change (%, negative = inhibition) at 10uM, target or system human ether-à-go-go-related gene (hERG) potassium channel (human), entry CCCCCCCn1c2c(c(=N)c3ccccc31)CCC2.I
**Result** -81.4%

**Query** What hERG current change (%, negative = inhibition) at 10uM appears in the records for this compound with human ether-à-go-go-related gene (hERG) potassium channel (human)? Cc1cc(C(=O)N2CCN(C(=O)c3ccco3)CC2)ccc1[N+](=O)[O-]
**Result** -64.7%

**Query** Find the measured hERG current change (%, negative = inhibition) at 10uM: item CCN(CC(=O)NC(C)(C)C)C(=O)C(c1ccccc1)c1ccccc1 , target or system human ether-à-go-go-related gene (hERG) potassium channel (human).
**Result** 23.5%

**Query** Under human ether-à-go-go-related gene (hERG) potassium channel (human): hERG current change (%, negative = inhibition) at 10uM value of COc1ccc(-c2oc(NC(=O)c3ccc(C)cc3)c(C#N)c2-c2ccc(OC)cc2)cc1 ?
**Result** -11.6%

**Query** Notebook entry, human ether-à-go-go-related gene (hERG) potassium channel (human) assay: hERG current change (%, negative = inhibition) at 10uM of O=C(c1ccco1)N1CCN(C(=S)Nc2cccc([N+](=O)[O-])c2)CC1 = ?
**Result** -63.3%

**Query** # get_value(readout= hERG current change (%, negative = inhibition) at 10uM, system= human ether-à-go-go-related gene (hERG) potassium channel (human)) for O=C(O)CCn1c2c(c3ccccc31)CCCC2
**Result** 25.3%

**Query** What value of hERG current change (%, negative = inhibition) at 10uM on human ether-à-go-go-related gene (hERG) potassium channel (human) does COC(=O)c1cc(C(=O)N2CCN(C(=O)c3ccco3)CC2)cc([N+](=O)[O-])c1 have?
**Result** -66.7%

**Query** Lab request: please report hERG current change (%, negative = inhibition) at 10uM under test system human ether-à-go-go-related gene (hERG) potassium channel (human) for CCn1c2ccc(F)cc2c2nnc(NN)nc21
**Result** -9.93%

**Query** What value of hERG current change (%, negative = inhibition) at 10uM on human ether-à-go-go-related gene (hERG) potassium channel (human) does Cc1cccc(NC(=S)N2CCN(C(=O)c3ccco3)CC2)c1 have?
**Result** -9.36%

**Query** Please provide the recorded hERG current change (%, negative = inhibition) at 10uM for CN(C(=O)c1ccc2c(c1)SC1=NS(=O)(=O)CCN12)C(c1ccccc1)c1ccccc1 , tested on human ether-à-go-go-related gene (hERG) potassium channel (human).
**Result** -61%

**Query** Which hERG current change (%, negative = inhibition) at 10uM is reported with human ether-à-go-go-related gene (hERG) potassium channel (human) for this entry: O=C(Nc1nccs1)C1CCN(S(=O)(=O)c2ccccc2)CC1 ?
**Result** -14.1%

**Query** // lookup hERG current change (%, negative = inhibition) at 10uM | system=human ether-à-go-go-related gene (hERG) potassium channel (human) | key= COc1ccc(CN2CCN(CCC(C)C)C(CCO)C2)cc1Cn1cccn1 (centres unmarked)
**Result** -48.1%

**Query** Find hERG current change (%, negative = inhibition) at 10uM (human ether-à-go-go-related gene (hERG) potassium channel (human)) for the entry O=C(CN1CCN(C(=O)c2ccco2)CC1)Nc1cccc([N+](=O)[O-])c1
**Result** -49.1%

**Query** I'm curious: which hERG current change (%, negative = inhibition) at 10uM was measured for CC(C)(O)C#Cc1ccc(CN2CCN(Cc3ccsc3)C(CCO)C2)cc1 (centres unmarked) tested on human ether-à-go-go-related gene (hERG) potassium channel (human)?
**Result** -21.6%

**Query** Please tell me: hERG current change (%, negative = inhibition) at 10uM of O=C(OCC#CCSc1nnc(-c2cccc3ccccc23)o1)c1ccco1 , system human ether-à-go-go-related gene (hERG) potassium channel (human)?
**Result** -2.9%

**Query** Return hERG current change (%, negative = inhibition) at 10uM measured with human ether-à-go-go-related gene (hERG) potassium channel (human) given this compound: COc1ccc(NC(=S)N2CCN(C(=O)c3ccco3)CC2)cc1OC
**Result** 14.6%

**Query** Lab request: please report hERG current change (%, negative = inhibition) at 10uM under test system human ether-à-go-go-related gene (hERG) potassium channel (human) for CCN1CC(CN(C)Cc2nc(-c3ccc(OC)c4ccccc34)oc2C)CC1=O (centres unmarked)
**Result** -37.2%

**Query** API: value(readout= hERG current change (%, negative = inhibition) at 10uM, system= human ether-à-go-go-related gene (hERG) potassium channel (human), query= Cc1noc2ncnc(N3CCCC3)c12 )
**Result** 5.93%

**Query** Param readout = hERG current change (%, negative = inhibition) at 10uM; param system = human ether-à-go-go-related gene (hERG) potassium channel (human); param query = CCOC(=O)N1CCN(S(=O)(=O)c2c[nH]c(C(=O)OC)c2)CC1 ; response: value
**Result** 12%

**Query** Enter reported hERG current change (%, negative = inhibition) at 10uM observed with human ether-à-go-go-related gene (hERG) potassium channel (human) for CCCn1c2ccccc2c2nnc(SCCN3CCOCC3)nc21
**Result** -9.15%

**Query** Query hERG current change (%, negative = inhibition) at 10uM on human ether-à-go-go-related gene (hERG) potassium channel (human) for CCn1c2ccc(F)cc2c2nnc(SCCN3CCOCC3)nc21
**Result** -41.2%

**Query** Checklist item: hERG current change (%, negative = inhibition) at 10uM tested on human ether-à-go-go-related gene (hERG) potassium channel (human), entry Cc1noc2ncnc(N3CCN(c4ccc(F)cc4)CC3)c12 , value?
**Result** -38.3%

**Query** Observed hERG current change (%, negative = inhibition) at 10uM on human ether-à-go-go-related gene (hERG) potassium channel (human) for O=C(O)Cn1c2c(c3ccccc31)CCCC2 , please.
**Result** 7.39%

**Query** Give hERG current change (%, negative = inhibition) at 10uM (human ether-à-go-go-related gene (hERG) potassium channel (human)) of the following compound: O=C(CCCCn1c(=O)c2ccccc2n(Cc2ccc(F)cc2Cl)c1=O)NCc1ccco1
**Result** -5.07%

**Query** Find the measured hERG current change (%, negative = inhibition) at 10uM: item O=C(Nc1ccc(OCc2ccccc2Cl)cc1)c1cccnc1 , target or system human ether-à-go-go-related gene (hERG) potassium channel (human).
**Result** 1.02%

**Query** Param readout = hERG current change (%, negative = inhibition) at 10uM; param system = human ether-à-go-go-related gene (hERG) potassium channel (human); param query = O=C(NCc1ccccc1Cl)c1ccc2c(c1)SC1=NS(=O)(=O)CCN12 ; response: value;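 also: peak tail current of the secondary pulse compared with the same well before compound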
**Result** -7.44%

**Query** State its hERG current change (%, negative = inhibition) at 10uM on human ether-à-go-go-related gene (hERG) potassium channel (human): O=C(Nc1nccs1)c1nc[nH]c1C(=O)NCc1ccccc1
**Result** 3.34%

**Query** // fetch human ether-à-go-go-related gene (hERG) potassium channel (human) hERG current change (%, negative = inhibition) at 10uM for CCN1CC(CN(C)Cc2nc(-c3ccco3)oc2C)CC1=O (centres unmarked)
**Result** 10.4%

**Query** Lookup: hERG current change (%, negative = inhibition) at 10uM / human ether-à-go-go-related gene (hERG) potassium channel (human) / CC1CC(C)CN(S(=O)(=O)c2ccc3c(c2)oc(=O)n3CC(=O)N(C)Cc2ccccc2)C1 (centres unmarked)
**Result** 7.04%

**Query** Fill in the recorded hERG current change (%, negative = inhibition) at 10uM for this compound, with human ether-à-go-go-related gene (hERG) potassium channel (human) as test system: CC(C)(C)c1ccccc1NC(=O)c1ccc2c(c1)SC1=NS(=O)(=O)CCN12
**Result** 6.51%

**Query** Find the measured hERG current change (%, negative = inhibition) at 10uM: item CCN1CC(CN(C)Cc2nc(-c3cccs3)no2)CC1=O (centres unmarked) , target or system human ether-à-go-go-related gene (hERG) potassium channel (human).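 Also: peak tail current of the secondary pulse compared with the same well before compound.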
**Result** 3.65%

**Query** Request body: readout hERG current change (%, negative = inhibition) at 10uM, system human ether-à-go-go-related gene (hERG) potassium channel (human), query CCN1CC(CN(C)Cc2nc(-c3ccc(C(F)(F)F)cc3)no2)CC1=O (centres unmarked) . Return the value.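 Also: peak tail current of the secondary pulse compared with the same well before compound.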
**Result** -28.9%

**Query** Given the entry Cc1noc2ncnc(N3CCN(c4cccc(Cl)c4)CC3)c12 , what hERG current change (%, negative = inhibition) at 10uM was observed with human ether-à-go-go-related gene (hERG) potassium channel (human)?
**Result** -52%

**Query** Form field: hERG current change (%, negative = inhibition) at 10uM recorded for CC(=O)NNC(=O)CCn1c2c(c3ccccc31)CCCC2 with human ether-à-go-go-related gene (hERG) potassium channel (human) (enter value)
**Result** 9.01%

**Query** Entry O=C(c1ccco1)N1CCN(C(=S)Nc2ccc(F)c(Cl)c2)CC1 , system human ether-à-go-go-related gene (hERG) potassium channel (human): what hERG current change (%, negative = inhibition) at 10uM was measured?;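 also: peak tail current of the secondary pulse compared with the same well before compound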
**Result** -71.9%
